Values compiled from patent US9187435B2.

We begin with a simple list: items and their reported pEC50.
- tested target: human ALX receptor (Homo sapiens)
- Sequence (P25090 whole entry): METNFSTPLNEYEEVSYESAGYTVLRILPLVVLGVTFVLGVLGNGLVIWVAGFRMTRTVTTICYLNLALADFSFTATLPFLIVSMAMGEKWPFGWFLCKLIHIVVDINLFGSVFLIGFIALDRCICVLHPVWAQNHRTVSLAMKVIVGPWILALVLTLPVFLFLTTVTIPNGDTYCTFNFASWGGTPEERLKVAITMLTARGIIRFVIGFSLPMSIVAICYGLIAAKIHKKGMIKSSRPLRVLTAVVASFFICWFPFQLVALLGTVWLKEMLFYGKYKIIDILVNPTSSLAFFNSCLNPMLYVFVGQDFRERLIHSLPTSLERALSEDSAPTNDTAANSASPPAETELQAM
- protocol details: Intracellular calcium measurements (FLIPR) in HEK293-hALXR-Gα16 cells, agonistic activity
- assay conditions: values normalized to WKYMVm 10 nM
- Procedure: The ALX receptor and FPRL2 agonistic activities of the compounds of formula (I) are determined in accordance with the following experimental method. Intracellular Calcium Measurements: Cells expressing recombinant human ALX receptor and the G-protein Gα16 (HEK293-hALXR-Gα16) were grown to 80% confluency in Growing Medium (GM). […] Changes in fluorescence were monitored before and after the addition of test compounds at lex=488 nm and lem=540 nm. […]
pEC50: −log10 of the molar value.

- compound: "Cc1cc(CNC(=O)[C@H]2[C@H](C(=O)OCCOCCN3CCCC3)[C@H]3CC[C@@H]2C32CC2)no1"
  tested target: "human ALX receptor (Homo sapiens)"
  pEC50: 7.51
- compound: "O=C(Nc1ccc(Br)nc1)C1C(C(=O)OCC2CCNCC2)C2CCC1C21CC1 (stereo not shown)"
  tested target: "human ALX receptor (Homo sapiens)"
  pEC50: 8.09
- compound: "O=C(OCCCC(=O)N1CCCC1)[C@H]1[C@H](C(=O)Nc2ccc(Br)nc2)[C@@H]2CC[C@H]1C21CC1"
  tested target: "human ALX receptor (Homo sapiens)"
  pEC50: 6.90
- compound: "O=C(OCCC1CCCNC1)[C@H]1[C@H](C(=O)Nc2ccc(Br)nc2)[C@@H]2CC[C@H]1C21CC1 (stereo partly shown)"
  tested target: "human ALX receptor (Homo sapiens)"
  pEC50: 8.51
